# System: Mus musculus
# procedure-text: Anticonvulsant activity in ip dosed albino CD1 mouse assessed as minimum dose required to protect subcutaneous pentylenetetrazole-induced seizures in half and more mouse measured after 0.5 hrs
# Format: functional
# Activity per entry

{"columns": ["compound", "tested-target", "Activity (mg/kg)"],
 "data": [
  ["O=C1CC(C(c2ccccc2)c2ccccc2)C(=O)N1CN1CCN(CCO)CC1 (stereo unspecified)", "Mus musculus", 100],
  ["CN1CCN(CN2C(=O)CC(C(c3ccccc3)c3ccccc3)C2=O)CC1 (stereo unspecified)", "Mus musculus", 100],
  ["O=C1CC(C(c2ccccc2)c2ccccc2)C(=O)N1CN1CCN(c2ncccn2)CC1 (stereo unspecified)", "Mus musculus", 300],
  ["O=C1CC(C(c2ccccc2)c2ccccc2)C(=O)N1CN1CCN(C2CCCCC2)CC1 (stereo unspecified)", "Mus musculus", 300],
  ["CC(C)C1CC(=O)N(CN2CCN(C)CC2)C1=O (stereo unspecified)", "Mus musculus", 100],
  ["O=C1CC(C(c2ccccc2)c2ccccc2)C(=O)N1CN1CCN(Cc2ccccc2)CC1 (stereo unspecified)", "Mus musculus", 100]
]}
